experimental.target: penicillinase (β-lactamase) from Bacillus SP
test.name: β-lactamase inhibitory activity by microiodometry, penicillin G as substrate
Format: biochemical
assay.conditions: read-out: 50% Inhibitory Concentration
Recorded pIC50 for the following molecules
In simple prose, pIC50 is minus the logarithm base ten of a concentration in moles per litre.

Use these answered entries as a reference point.
C[C@]1(Cn2cc([Si](C)(C)C)nn2)[C@H](C(=O)O)N2C(=O)C[C@H]2S1(=O)=O [Compound 24]	6.29
C[C@]1(Cn2nncc2C(=O)O)[C@H](C(=O)O)N2C(=O)C[C@H]2S1(=O)=O [Compound 17]	5.77
C[C@]1(Cn2nnc(C(=O)O)c2C(=O)O)[C@H](C(=O)O)N2C(=O)C[C@H]2S1(=O)=O [Compound 39]	5.64
COC(=O)c1cnnn1C[C@@]1(C)[C@H](C(=O)O)N2C(=O)C[C@H]2S1(=O)=O [Compound 13]	6.52
COC(=O)c1cn(C[C@@]2(C)[C@H](C(=O)O)N3C(=O)C[C@H]3S2(=O)=O)nn1 [Compound 12]	7.31
CCOC(=O)c1cn(C[C@@]2(C)[C@H](C(=O)O)N3C(=O)C[C@H]3S2(=O)=O)nn1 [Compound 7]	7.27

Form field: pIC50 recorded for C[C@]1(Cn2ccnn2)[C@H](C(=O)O)N2C(=O)C[C@H]2S1(=O)=O [Compound 22] with penicillinase (β-lactamase) from Bacillus SP (enter value)
6.16

Could you do the same for C[C@]1(Cn2cc(C(=O)O)nn2)[C@H](C(=O)O)N2C(=O)C[C@H]2S1(=O)=O [Compound 16] , please?
6.22

Then this molecule: CCOC(=O)c1cnnn1C[C@@]1(C)[C@H](C(=O)O)N2C(=O)C[C@H]2S1(=O)=O [Compound 11]
6.47

----------
MIC70, Present compound as combined with cephalexin reference
Tested on: 30 strains of coliform bacilli collected from the living body of humans
test.name: MIC50 and MIC70 against 30 clinical strains, antibiotics alone and combined with present compound
Format: cell-based
assay.conditions: MIC of cephalexin with present compound (10 pg/ml [sic]); 70% of 30 strains
State just the number; it will be interpreted in µg/mL.

Consider the worked cases shown below.
C[C@]1(Cn2nncc2C(=O)O)[C@H](C(=O)O)N2C(=O)C[C@H]2S1(=O)=O	12.5
C[C@]1(Cn2cc(C(=O)O)nn2)[C@H](C(=O)O)N2C(=O)C[C@H]2S1(=O)=O	25
CCOC(=O)c1cn(C[C@@]2(C)[C@H](C(=O)O)N3C(=O)C[C@H]3S2(=O)=O)nn1	100
CCOC(=O)c1cnnn1C[C@@]1(C)[C@H](C(=O)O)N2C(=O)C[C@H]2S1(=O)=O	100

Next, consider the following compound.
Look up MIC70, Present compound as combined with cephalexin: "C[C@]1(Cn2ccnn2)[C@H](C(=O)O)N2C(=O)C[C@H]2S1(=O)=O"
50

----------
experimental.target: penicillinase (β-lactamase) from Bacillus SP
test.name: β-lactamase inhibitory activity by pH stat method, penicillin G as substrate
Assay type: biochemical
assay.conditions: read-out: 50% β-lactamase inhibitory concentration
quantity: pIC50
Entry type: numeric. Quantity: pIC50, the -log10 of concentration in molar units.

What does the data say about its pIC50? Entry: "COC(=O)c1nnn(C[C@@]2(C)[C@H](C(=O)O)N3C(=O)C[C@H]3S2(=O)=O)c1C(=O)OC"
6.52

----------
Parameter MIC70, Present compound as combined with piperacillin: see the listing below.
Test system: 30 strains of coliform bacilli collected from the living body of humans
test.name: MIC50 and MIC70 against 30 clinical strains, antibiotics alone and combined with present compound
Format: cell-based
assay.conditions: MIC of piperacillin with present compound (10 pg/ml [sic]); 70% of 30 strains
All answers are understood in µg/mL, so give the number only.

C[C@]1(Cn2cc(C(=O)O)nn2)[C@H](C(=O)O)N2C(=O)C[C@H]2S1(=O)=O	3.13
CCOC(=O)c1cn(C[C@@]2(C)[C@H](C(=O)O)N3C(=O)C[C@H]3S2(=O)=O)nn1	6.25
C[C@]1(Cn2ccnn2)[C@H](C(=O)O)N2C(=O)C[C@H]2S1(=O)=O	1.56
CCOC(=O)c1cnnn1C[C@@]1(C)[C@H](C(=O)O)N2C(=O)C[C@H]2S1(=O)=O	25

Here is the next item to consider.
Dear colleague, I am looking for the recorded MIC70, Present compound as combined with piperacillin of the following compound: "C[C@]1(Cn2nncc2C(=O)O)[C@H](C(=O)O)N2C(=O)C[C@H]2S1(=O)=O"
50

The origin of these recorded values is patent EP0097446B1.
